Provenance of the data: patent US20220378931A1

experimental-target: T1, human insulin receptor isoform A with C-terminal C9 tag (human, UniProt P06213 28-1382)
T1 construct: membranes of stably transfected HEK293 cells; also called hIR-A; human IR-A
run-description: 125I-insulin competition SPA, hIR-A membranes, 0.1% BSA
measurement-kind: pKi
Give only the number. pKi is defined as minus log10 of concentration in molar units.

For INS Analog 19 (other, single-chain insulin B-L2-A-L1-VHH fusion; also called Ex. 19) FVSQHLCGSHLVEALYLVCGERGFFYTPKTGGGGGGGIVEQCCTSICSLYQLENYCGGGGGQGGGGQGGGGQGGGGQGGGGQEVQLLESGGGLVQPGGSLRLSCAASGRYIDETAVAWFRQAPGKEREFVAGIGGGVDITYYADSVKGRFTISRDNSKNTLYLQMNSLRPEDTAVYYCAARPGRPLITSKVADLYPYWGQGTLVTVSSPP , what is its reported pKi?
7.38

If you can, please state the reported pKi value of INS Analog 2 (other, single-chain insulin B-L2-A-L1-VHH fusion; also called Ex. 2) FVDQHLCGSHLVEALYLVCGERGFFYTPKTGGGGGGGIVEQCCTSICSLYQLENYCGPGPAPGPAPGPAPGPAPGPAPGPAPGPAPGPAEVQLLESGGGLVQPGGSLRLSCAASGRTVSSTAVAWFRQAPGKEREFVAGIGGSVDITYYADSVKGRFTISRDNSKNTLYLQMNSLRPEDTAVYYCAVRPGRPLITSRDANLYDYWGQGTLVTVSS .
7.50

Can you look up the measured pKi of INS Analog 29 (other, single-chain insulin B-L2-A-L1-VHH fusion; also called Ex. 29) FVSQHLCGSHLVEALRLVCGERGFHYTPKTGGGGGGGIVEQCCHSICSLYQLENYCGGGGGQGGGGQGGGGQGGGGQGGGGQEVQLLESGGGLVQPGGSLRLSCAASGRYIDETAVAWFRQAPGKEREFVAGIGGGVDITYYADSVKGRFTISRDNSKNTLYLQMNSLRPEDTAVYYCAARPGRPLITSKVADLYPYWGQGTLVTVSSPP for me?
6.75

Any idea what its pKi is? The binder is INS Analog 12 (other, single-chain insulin B-L2-A-L1-VHH fusion; also called Ex. 12) FVSQHLCGSHLVEALHLVCGERGFHYTPKTGGGGGGGIVEQCCHSICSLYQLENYCGPGPAPGPAPGPAPGPAPGPAPGPAPGPAPGPAEVQLLESGGGLVQPGGSLRLSCAASGRYIDETAVAWFRQAPGKEREFVAGIGGGVDITYYADSVKGRFTISRDNSKNTLYLQMNSLRPEDTAVYYCAARPGRPLITSKVADLYPYWGQGTLVTVSSPP
7.42

Consider the binder INS Analog 4 (other, single-chain insulin B-L2-A-L1-VHH fusion; also called Ex. 4) FVNQHLCGSHLVEALELVCGERGFFYTPKTGGGGGGGIVEQCCTSICSLYQLENYCGPGPAPGPAPGPAPGPAPGPAPGPAPGPAPGPAEVQLLESGGGLVQPGGSLRLSCAASGRTVSSTAVAWFRQAPGKEREFVAGIGGSVDITYYADSVKGRFTISRDNSKNTLYLQMNSLRPEDTAVYYCAVRPGRPLITSRDANLYDYWGQGTLVTVSS and give its measured pKi.
6.23

Can you look up the measured pKi of INS Analog 27 (other, single-chain insulin B-L2-A-L1-VHH fusion; also called Ex. 27) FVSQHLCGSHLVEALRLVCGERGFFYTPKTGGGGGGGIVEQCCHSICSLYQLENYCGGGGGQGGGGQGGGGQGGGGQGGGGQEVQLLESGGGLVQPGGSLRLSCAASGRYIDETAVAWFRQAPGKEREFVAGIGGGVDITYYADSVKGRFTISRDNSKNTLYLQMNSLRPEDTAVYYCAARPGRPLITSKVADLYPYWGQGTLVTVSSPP for me?
6.99

Query (binder): INS Analog 30 (other, single-chain insulin B-L2-A-L1-VHH fusion; also called Ex. 30) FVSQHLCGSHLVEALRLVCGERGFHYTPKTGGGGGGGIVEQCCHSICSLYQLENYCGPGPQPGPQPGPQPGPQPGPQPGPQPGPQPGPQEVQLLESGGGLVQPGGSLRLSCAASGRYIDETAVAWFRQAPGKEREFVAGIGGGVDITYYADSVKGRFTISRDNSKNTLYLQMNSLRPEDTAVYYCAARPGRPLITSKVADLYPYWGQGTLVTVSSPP ; field requested: pKi
6.90

Consider the binder INS Analog 6 (other, single-chain insulin B-L2-A-L1-VHH fusion; also called Ex. 6) FVNQHLCGSHLVEALYLVCGERGFHYTPKTGGGGGGGIVEQCCTSICSLYQLENYCGPGPAPGPAPGPAPGPAPGPAPGPAPGPAPGPAEVQLLESGGGLVQPGGSLRLSCAASGRTVSSTAVAWFRQAPGKEREFVAGIGGSVDITYYADSVKGRFTISRDNSKNTLYLQMNSLRPEDTAVYYCAVRPGRPLITSRDANLYDYWGQGTLVTVSS and give its measured pKi.
7.18

# get_value(readout='pKi', item= INS Analog 26 (other, single-chain insulin B-L2-A-L1-VHH fusion; also called Ex. 26) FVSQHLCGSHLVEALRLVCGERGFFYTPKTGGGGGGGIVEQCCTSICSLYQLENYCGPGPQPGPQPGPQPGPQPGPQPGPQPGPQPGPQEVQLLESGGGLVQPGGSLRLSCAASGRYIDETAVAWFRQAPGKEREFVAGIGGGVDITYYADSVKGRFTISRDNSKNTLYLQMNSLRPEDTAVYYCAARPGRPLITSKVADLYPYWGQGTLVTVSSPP )
6.41

Which pKi value belongs to INS Analog 28 (other, single-chain insulin B-L2-A-L1-VHH fusion; also called Ex. 28) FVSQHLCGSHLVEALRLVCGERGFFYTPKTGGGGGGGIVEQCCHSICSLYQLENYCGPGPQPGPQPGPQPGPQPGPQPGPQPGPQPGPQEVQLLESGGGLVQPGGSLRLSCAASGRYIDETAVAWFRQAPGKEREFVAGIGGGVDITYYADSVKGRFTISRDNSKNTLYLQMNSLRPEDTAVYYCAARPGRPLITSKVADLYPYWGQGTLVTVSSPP ?
7.15

Param item = INS Analog 9 (other, single-chain insulin B-L2-A-L1-VHH fusion; also called Ex. 9) FVSQHLCGSHLVEALYLVCGERGFHYTPKTGGGGGGGIVEQCCHSICSLYQLENYCGPGPAPGPAPGPAPGPAPGPAPGPAPGPAPGPAEVQLLESGGGLVQPGGSLRLSCAASGRYIDETAVAWFRQAPGKEREFVAGIGGGVDITYYADSVKGRFTISRDNSKNTLYLQMNSLRPEDTAVYYCAARPGRPLITSKVADLYPYWGQGTLVTVSSPP ; retrieve measured pKi.
7.93
